system: alkaline phosphatase activity in T47D cells; experiment: T47D Cell Alkaline Phosphatase Assay; assay type: cell-based, human; settings: antagonist mode, in the presence of 1 nM progesterone; listed as (−)-6-sec-butyl-7-methoxydibenzo[b,d]furan-2-carbonitrile; read-out: Example 18A 'T47D Cell Alkaline Phosphatase Assay' IC50

[
  {
    "Compound": "CCC(C)c1c(OC)ccc2c1oc1ccc(C#N)cc12 (single isomer, unassigned; (-))",
    "Quantity Unit": "nM",
    "IC50": 30
  }
]

###

biological target: progesterone receptor (PR) (Homo sapiens); construct: in live, intact (whole) cells, using the human breast carcinoma T47D cell line; endogenous in cells; assay: Progesterone Receptor Whole Cell Competition Binding Assay Using T47D Cells; details: 3H-progesterone 3 nM, read-out: Example 18B 'T47D PR whole cell binding Assay' IC50
Sequence (P06401 whole entry): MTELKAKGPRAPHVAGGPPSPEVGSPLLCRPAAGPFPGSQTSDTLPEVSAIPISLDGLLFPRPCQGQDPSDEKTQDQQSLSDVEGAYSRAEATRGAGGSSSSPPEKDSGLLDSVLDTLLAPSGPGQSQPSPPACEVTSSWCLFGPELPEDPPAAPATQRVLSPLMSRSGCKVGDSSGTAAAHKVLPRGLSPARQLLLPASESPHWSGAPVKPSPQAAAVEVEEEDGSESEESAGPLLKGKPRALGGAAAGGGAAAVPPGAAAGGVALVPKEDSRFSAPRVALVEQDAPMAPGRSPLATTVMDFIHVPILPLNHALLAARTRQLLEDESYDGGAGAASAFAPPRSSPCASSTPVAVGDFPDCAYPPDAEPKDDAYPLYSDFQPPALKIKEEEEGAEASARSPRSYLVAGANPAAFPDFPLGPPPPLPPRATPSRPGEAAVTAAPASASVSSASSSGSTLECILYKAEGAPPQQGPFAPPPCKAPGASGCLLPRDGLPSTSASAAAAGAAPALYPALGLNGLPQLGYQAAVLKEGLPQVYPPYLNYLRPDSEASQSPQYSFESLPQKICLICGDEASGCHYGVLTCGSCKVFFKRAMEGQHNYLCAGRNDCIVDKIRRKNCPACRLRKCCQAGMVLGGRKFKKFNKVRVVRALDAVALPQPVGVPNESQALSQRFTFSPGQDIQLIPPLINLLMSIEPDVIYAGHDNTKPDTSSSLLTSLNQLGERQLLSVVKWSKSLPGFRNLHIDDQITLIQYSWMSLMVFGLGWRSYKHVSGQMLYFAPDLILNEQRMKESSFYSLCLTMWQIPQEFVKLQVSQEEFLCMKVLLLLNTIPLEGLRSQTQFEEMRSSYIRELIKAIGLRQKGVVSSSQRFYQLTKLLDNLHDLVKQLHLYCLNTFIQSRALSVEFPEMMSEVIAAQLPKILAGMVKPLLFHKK
Readout: IC50 (nM)

[
  {
    "Compound": "CCC(C)c1c(O)ccc2c1oc1ccc(C#N)cc12 (single isomer, unassigned; (+)) [Example 14]",
    "Readout": "IC50",
    "Data Value": 41.5
  },
  {
    "Compound": "CCC(C)c1c(OC)ccc2c1oc1ccc(C#N)cc12 (racemic)",
    "Readout": "IC50",
    "Data Value": 59.7
  },
  {
    "Compound": "CCC(C)c1c(O)ccc2c1oc1ccc(C#N)cc12 (racemic) [Example 13]",
    "Readout": "IC50",
    "Data Value": 36.7
  },
  {
    "Compound": "CC(C)c1c(O)ccc2c1oc1ccc(C#N)cc12",
    "Readout": "IC50",
    "Data Value": 21.1
  },
  {
    "Compound": "CCC(C)c1c(O)ccc2c1oc1ccc(C#N)cc12 (single isomer, unassigned; (-)) [Example 15]",
    "Readout": "IC50",
    "Data Value": 81.2
  }
]

###

Entries and their melting point

[
  {
    "Compound": "N#Cc1ccc2oc3cc(O)ccc3c2c1",
    "melting point": "270 to 271 °C"
  },
  {
    "Compound": "N#Cc1ccc2oc3cc(O)c(F)cc3c2c1",
    "melting point": "270 °C (dec.)"
  },
  {
    "Compound": "CC(C)c1c(O)ccc2c1oc1ccc(C#N)cc12",
    "melting point": "180 to 182 °C"
  },
  {
    "Compound": "COc1cc2oc3ccc(C#N)cc3c2cc1F",
    "melting point": "206 to 208 °C"
  },
  {
    "Compound": "CCC(C)c1c(O)ccc2c1oc1ccc(C#N)cc12 (racemic)",
    "melting point": "206 to 207 °C"
  },
  {
    "Compound": "CCC(C)c1c(OC)ccc2c1oc1ccc(C#N)cc12 (racemic)",
    "melting point": "80 to 82 °C"
  },
  {
    "Compound": "N#Cc1ccc2oc3c(Br)c(O)c(F)cc3c2c1",
    "melting point": "270 °C (dec.)"
  }
]
